Test Name: in vitro
Particulars: rat, not told, Surrogate activity-based Plasma stability t½
Where a SMILES comes first, the peptide text is derived from it. Bridges are numbered along the chain shown (N, C = ends). [ ]: non-standard residue; d: D form. The star is where a group is joined. pGlu = O=C1CC[C@@H](C(=O)O)N1; NHPhenethyl = c1ccc(CCN*)cc1; Nle = CCCC[C@H](N)C(=O)O; Inp = O=C(O)C1CCNCC1
Quantity Kind: log10(half-life) (log10 of the value in h)
Hey, these are logged values: log10 of half-life, h being the unit before logging.

// below: answered molecules
| Molecule | Result Number |
| --- | --- |
| CCCC[C@@H]1NC(=O)[C@@H]2CCCN2C(=O)CNC(=O)[C@H](CCCCN)NC(=O)[C@H](Cc2c[nH]cn2)NC(=O)[C@@H](NC(=O)[C@H](CC(C)C)NC(=O)[C@H](CCCNC(=N)N)NC(=O)[C@@H]2CCCN2C(=O)[C@H](CCCNC(=N)N)NC(=O)C2CCNCC2)CSSC[C@@H](C(=O)N[C@@H](Cc2ccccc2)C(=O)O)NC1=O [Example 18, H-Isn-R-P-R-L-C-H-K-G-P-Nle-C-F-OH] (H-[Inp]RPRLCHKGP[Nle]CF-OH; disulfide 6-12) | 0.62 |
| CCCC[C@@H]1NC(=O)[C@@H]2CCCN2C(=O)CNC(=O)[C@H](CCCCN)NC(=O)[C@H](Cc2c[nH]cn2)NC(=O)[C@@H](NC(=O)[C@H](CCCCN)NC(=O)[C@H](CCCNC(=N)N)NC(=O)[C@@H]2CCCN2C(=O)[C@H](CCCNC(=N)N)NC(=O)[C@@H]2CCC(=O)N2)CSSC[C@@H](C(=O)N[C@@H](Cc2ccccc2)C(=O)O)NC1=O [Example 37, pE-R-P-R-K-C-H-K-G-P-Nle-C-F-OH] ([pGlu]RPRKCHKGP[Nle]CF-OH; disulfide 6-12) | 0.44 |
| CCCC[C@@H]1NC(=O)[C@@H]2CCCN2C(=O)CNC(=O)[C@H](CCCCN)NC(=O)[C@H](Cc2c[nH]cn2)NC(=O)[C@@H](NC(=O)[C@H](CC(C)C)NC(=O)[C@H](CCCNC(=N)N)NC(=O)[C@@H]2CCCN2C(=O)[C@H](CCCNC(=N)N)NC(=O)[C@@H](N)CCCNC(=N)N)CSSC[C@@H](C(=O)N[C@@H](Cc2ccccc2)C(=O)O)NC1=O [Example 17, H-R-R-P-R-L-C-H-K-G-P-Nle-C-F-OH] (H-RRPRLCHKGP[Nle]CF-OH; disulfide 6-12) | -0.63 |
| CCCC[C@@H]1NC(=O)[C@@H]2CCCN2C(=O)CNC(=O)[C@H](CCCCN)NC(=O)[C@H](Cc2c[nH]cn2)NC(=O)[C@@H](NC(=O)[C@H](CC(C)C)NC(=O)[C@H](CCCNC(=N)N)NC(=O)[C@@H]2CCCN2C(=O)[C@H](CCCNC(=N)N)NC(=O)[C@@H]2CCC(=O)N2)CSSC[C@@H](C(=O)NCCc2ccccc2)NC1=O [Example 12] ([pGlu]RPRLCHKGP[Nle]C-NHPhenethyl; disulfide 6-12) | 0.19 |
| CCCC[C@@H]1NC(=O)[C@@H]2CCCN2C(=O)CNC(=O)[C@H](CCCCN)NC(=O)[C@H](Cc2c[nH]cn2)NC(=O)[C@@H](NC(=O)[C@H](CC(C)C)NC(=O)[C@H](CCCNC(=N)N)NC(=O)[C@@H]2CCCN2C(=O)[C@H](CCCNC(=N)N)NC(=O)[C@@H]2CCC(=O)N2)CSSC[C@@H](C(=O)N[C@@H](Cc2c[nH]cn2)C(=O)O)NC1=O [Example 48, pE-R-P-R-L-C-H-K-G-P-Nle-C-H-OH] ([pGlu]RPRLCHKGP[Nle]CH-OH; disulfide 6-12) | 0.96 |

Kindly review the next molecule as well.
Asked: Note log10(half-life) for the molecule shown: CCCC[C@@H]1NC(=O)[C@@H]2CCCN2C(=O)CNC(=O)[C@H](CCCCN)NC(=O)[C@H](Cc2c[nH]cn2)NC(=O)[C@@H](NC(=O)[C@H](CC(C)C)NC(=O)[C@H](CCCNC(=N)N)NC(=O)[C@@H]2CCCN2C(=O)[C@H](CCCNC(=N)N)NC(=O)[C@@H]2CCC(=O)N2)CSSC[C@@H](C(N)=O)NC1=O [Example 63, pE-R-P-R-L-C-H-K-G-P-Nle-C-NH2] ([pGlu]RPRLCHKGP[Nle]C-NH2; disulfide 6-12)
Given back: 1.07
